Target: rat mGlu2 (Rattus norvegicus (Rat), UniProt P31421)
Sequence (P31421 19-872): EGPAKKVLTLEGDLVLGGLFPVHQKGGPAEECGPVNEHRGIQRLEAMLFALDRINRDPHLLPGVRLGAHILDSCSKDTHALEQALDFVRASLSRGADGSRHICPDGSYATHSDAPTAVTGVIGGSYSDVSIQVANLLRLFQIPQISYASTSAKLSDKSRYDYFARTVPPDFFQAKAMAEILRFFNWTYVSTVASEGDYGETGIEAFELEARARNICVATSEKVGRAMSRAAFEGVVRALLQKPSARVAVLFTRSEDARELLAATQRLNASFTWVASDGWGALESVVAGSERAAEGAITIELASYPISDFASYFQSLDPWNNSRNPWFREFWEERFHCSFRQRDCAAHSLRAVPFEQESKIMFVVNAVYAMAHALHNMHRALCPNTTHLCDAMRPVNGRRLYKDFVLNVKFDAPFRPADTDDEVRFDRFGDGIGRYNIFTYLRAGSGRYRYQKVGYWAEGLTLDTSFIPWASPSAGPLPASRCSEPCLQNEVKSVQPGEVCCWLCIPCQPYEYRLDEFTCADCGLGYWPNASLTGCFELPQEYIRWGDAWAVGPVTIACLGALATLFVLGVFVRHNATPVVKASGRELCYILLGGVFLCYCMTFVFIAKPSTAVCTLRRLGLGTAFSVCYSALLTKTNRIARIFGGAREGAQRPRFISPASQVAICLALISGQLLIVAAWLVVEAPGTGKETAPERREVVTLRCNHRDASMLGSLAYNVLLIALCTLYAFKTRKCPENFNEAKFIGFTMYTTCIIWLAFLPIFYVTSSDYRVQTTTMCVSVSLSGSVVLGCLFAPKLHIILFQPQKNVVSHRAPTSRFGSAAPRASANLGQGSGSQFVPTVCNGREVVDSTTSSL
Test: mGlu2 Ca2+ flux assay
Conditions: Gα15 HEK293 cells stably expressing rat mGlu2; glutamate EC80; >10,000 = no plateau; >30,000 = no measurable activity
pIC50: −log10 of the molar value.
Reported pIC50 is given for each of the following compounds.

Compound: Cc1ncc(OCCCOc2cnc(C#N)cc2-c2ccc(F)cc2)cn1
pIC50: < 4.52
//
Compound: CC(Oc1cnc(C#N)cc1-c1ccc(F)cc1)c1ccncc1 (stereo not drawn)
pIC50: < 5.00
//
Compound: NC(=O)c1cc(-c2ccc(F)cc2)c(N2CCC(Oc3ccc(C(F)(F)F)nc3)CC2)cn1
pIC50: < 4.52
//
Compound: CN(CCOCc1cncc(F)c1)c1cnc(C#N)cc1-c1ccc(F)cc1
pIC50: < 5.00

I'd like to know its pIC50. The compound in question is N#Cc1cc(-c2ccc(F)cc2)c(OCc2cccnc2)cn1 < 5.00

Would you mind telling me what pIC50 value was observed for N#Cc1cc(-c2ccc(F)cc2)c(OCc2cc(F)cc(F)c2)cn1 ? < 4.52

Can you share its pIC50? I mean this compound: N#Cc1cc(-c2ccc(F)cc2)c(OC2CCN(c3ccnc(C(F)(F)F)c3)C2)cn1 (stereo not drawn) < 4.52

Fill blank: measured pIC50 of the compound CC1(C)CN(CCCOc2cnc(C#N)cc2-c2ccc(F)cc2)CCO1 is ____. < 4.52

GET /values?readout=pIC50&item= Cc1ccc(OCCCOc2cnc(C#N)cc2-c2ccc(F)cc2)cn1 < 5.00
